Test System: Sodium-dependent serotonin transporter (Rattus norvegicus)
Test Name: Inhibition constant of high-affinity 5-HT uptake
I'd appreciate it if you could supply Ki values for the items below.
Answer format: value, then unit.

Compound	Ki
C[N+](C)(C)c1cccc(O)c1O	90 µM

Next, consider the following compound.
Exercise: For C[N+](C)(C)CC(O)c1ccc(O)c(O)c1 (configuration not stated) , what is its reported Ki?
Key: 390 µM

====

Provide the recorded IC50 for the entries that follow.
Test System: Sodium-dependent serotonin transporter (Rattus norvegicus, UniProt P31652)
Sequence (P31652 whole entry): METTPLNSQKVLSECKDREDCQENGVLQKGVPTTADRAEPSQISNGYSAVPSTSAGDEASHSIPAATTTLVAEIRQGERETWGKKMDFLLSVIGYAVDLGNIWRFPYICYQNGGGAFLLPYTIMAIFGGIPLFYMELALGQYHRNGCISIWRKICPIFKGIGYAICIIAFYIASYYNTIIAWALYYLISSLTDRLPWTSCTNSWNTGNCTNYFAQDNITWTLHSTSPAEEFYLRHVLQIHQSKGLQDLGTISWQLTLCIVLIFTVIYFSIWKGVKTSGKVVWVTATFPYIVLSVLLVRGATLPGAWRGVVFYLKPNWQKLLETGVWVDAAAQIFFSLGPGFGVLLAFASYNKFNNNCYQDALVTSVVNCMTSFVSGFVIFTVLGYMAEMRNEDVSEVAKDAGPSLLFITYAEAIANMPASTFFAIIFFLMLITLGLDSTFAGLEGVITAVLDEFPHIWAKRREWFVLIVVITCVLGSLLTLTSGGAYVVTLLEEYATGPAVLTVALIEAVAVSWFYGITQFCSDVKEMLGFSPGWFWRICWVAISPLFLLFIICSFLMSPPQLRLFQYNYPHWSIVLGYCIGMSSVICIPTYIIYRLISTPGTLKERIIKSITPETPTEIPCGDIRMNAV
Test Name: Inhibition of high affinity 5-HT uptake at concentration of 1 uM
Give bare numbers, in µM.

Compound	Unit Abbreviation	IC50
C[N+](C)(C)CC(O)c1ccc(O)c(O)c1 (configuration not stated)	µM	3600

API: the following record is the query input.
Exercise: For the compound `C[N+](C)(C)c1cccc(O)c1O` , what IC50 is on record?
Key: 213

====

Test System: Sodium-dependent dopamine transporter (Rattus norvegicus, UniProt P23977)
Sequence (P23977 whole entry): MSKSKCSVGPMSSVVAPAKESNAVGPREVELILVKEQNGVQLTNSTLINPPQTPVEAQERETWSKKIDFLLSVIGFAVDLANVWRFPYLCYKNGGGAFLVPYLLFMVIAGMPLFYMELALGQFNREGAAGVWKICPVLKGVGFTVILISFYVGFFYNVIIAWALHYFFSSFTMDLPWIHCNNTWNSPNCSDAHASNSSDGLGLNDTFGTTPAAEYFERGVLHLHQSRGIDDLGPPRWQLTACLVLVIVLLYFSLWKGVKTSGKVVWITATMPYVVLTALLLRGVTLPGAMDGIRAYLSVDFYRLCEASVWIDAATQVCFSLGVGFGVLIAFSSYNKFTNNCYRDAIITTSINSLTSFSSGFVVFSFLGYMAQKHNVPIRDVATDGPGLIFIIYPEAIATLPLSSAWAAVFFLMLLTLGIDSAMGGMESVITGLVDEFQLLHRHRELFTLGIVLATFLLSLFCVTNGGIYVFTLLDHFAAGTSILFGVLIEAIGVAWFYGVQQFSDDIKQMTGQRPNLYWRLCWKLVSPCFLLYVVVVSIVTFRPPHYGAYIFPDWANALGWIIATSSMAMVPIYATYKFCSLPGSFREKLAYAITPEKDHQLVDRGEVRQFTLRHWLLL
Test Name: Inhibition of high affinity dopamine uptake at concentration of 1 uM
Property Measured: pIC50
Give bare numbers, as −log10 of the molar value.

Exercise: Given C[N+](C)(C)CC(O)c1ccc(O)c(O)c1 (stereo unspecified) [CATECHOLINE] , state its recorded pIC50.
Key: 3.02
